FYI, the data here is from patent US20180208675A1.

# system-tested: human TFPI alpha (full-length TFPIα) (human, UniProt P10646 29-304)
# protocol-text: cell-based or functional assay
parameter: thrombin peak (nM) at 100 nM, FVIII-neutralised plasma + 2 nM TFPIα
Supply the numeric figure in nM, leaving out any unit text.

Give the value of thrombin peak (nM) at 100 nM, FVIII-neutralised plasma + 2 nM TFPIα reported for the following: mAb 2021 (antibody, human IgG4 S228P, kappa, V domains shown) VH: EVQLVESGGGLVKPGGSLRLSCAASGFTFSNYAMSWVRQTPEKRLEWVATISRSGSYSYFPDSVQGRFTISRDNAKNSLYLQMNSLRAEDTAVYYCARLGGYDEGDAMDSWGQGTTVTVSS VL: DIVMTQTPLSLSVTPGQPASISCKSSQSLLESDGKTYLNWYLQKPGQSPQLLIYLVSILDSGVPDRFSGSGSGTDFTLKISRVEAEDVGVYYCLQATHFPQTFGGGTKVEIKR
58.6

For the binder Fab 0094 (Fab fragment of mAb 2007) (Fab, V domains shown, KPI-2 specific) VH: EVQLVESGGGLVKPGGSLRLSCAASGFTFSNYAMSWVRQAPGKGLEWVSTISRSGSYSYYPDSVKGRFTISRDNAKNSLYLQMNSLRAEDTAVYYCARLGGYDEGDAMDSWGQGTTVTVSS VL: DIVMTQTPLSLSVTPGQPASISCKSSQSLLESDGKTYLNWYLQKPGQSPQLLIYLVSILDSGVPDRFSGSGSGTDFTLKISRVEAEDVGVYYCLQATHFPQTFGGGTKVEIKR , report thrombin peak (nM) at 100 nM, FVIII-neutralised plasma + 2 nM TFPIα.
20.3

Supply reported thrombin peak (nM) at 100 nM, FVIII-neutralised plasma + 2 nM TFPIα belonging to this binder: Fab 0095 (Fab fragment of mAb 2014) (Fab, V domains shown, KPI-2 specific) VH: EVQLVESGGGLVKPGGSLRLSCAASGFTFSNYAMSWVRQAPGKGLEWVSTISRSGSYSYYADSVKGRFTISRDNAKNSLYLQMNSLRAEDTAVYYCARLGGYDEGDAMDSWGQGTTVTVSS VL: DIVMTQTPLSLSVTPGQPASISCKSSQSLLESDGKTYLNWLLQRPGESPKLLIYLVSILDSGVPDRFSGSGSGTDFTLKISRVEAEDVGVYYCLQATHFPQTFGGGTKVEIKR
24.6

Recall and state the measured thrombin peak (nM) at 100 nM, FVIII-neutralised plasma + 2 nM TFPIα for Fab 0088 (Fab fragment of mAb 2021) (Fab, V domains shown, free C-terminal cysteine; KPI-2 specific) VH: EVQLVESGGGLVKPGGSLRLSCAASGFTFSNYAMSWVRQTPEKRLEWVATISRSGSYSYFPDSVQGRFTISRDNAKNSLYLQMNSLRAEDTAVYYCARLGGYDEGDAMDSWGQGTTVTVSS VL: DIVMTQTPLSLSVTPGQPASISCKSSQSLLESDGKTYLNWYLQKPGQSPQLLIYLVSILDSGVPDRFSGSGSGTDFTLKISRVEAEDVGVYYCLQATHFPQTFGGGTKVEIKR .
48.1
